B1: HDV Ribozyme (parent)
chain: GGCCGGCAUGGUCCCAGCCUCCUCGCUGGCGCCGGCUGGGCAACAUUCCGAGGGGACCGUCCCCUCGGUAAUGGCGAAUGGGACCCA

variants of: B1; test: self-cleavage, relative activity (ratio to wild type); higher = more cleavage; co-transcriptional
Classify by measured self-cleavage: 1.0 if it is equal to or exceeds 0.4, 0.0 if it is smaller.

// known answers, use as guide
GGCCGGCAUGGUCCCAGCCUCCUCGCUGGCGCCGGCUGGGCAUCAUUCCGAGGGGACCGUCCCCUCGGGAAUGGCGAAUGGGACCCA [A43U U69G]: 0.0
GGCCGGCAUGGUCCCAGCCUCCUCGCUGGCGCCGGCUGGGCAACAUUCCGAGGGGACCGUCCCCUCGGUAAUGGCGAAGGGGACCUA [U79G C86U]: 1.0
GGCCGGCAUGGUCCCAGCCUCCUCGCUGGCGCCGGCUGGGAAACAUUCCGAGGGGACCGUCCCCUCGGUAAUGGCGAAUGGGUCCCA [C41A A83U]: 0.0
GGCCGGCAUGGUCCCAGCCUCCUCGCUGGCGGCGGCUGGGCAACAUUCCGUGGGGACCGUCCCCUCGGUAAUGGCGAAUGGGACCCA [C32G A51U]: 0.0
GGCCGGCUUGGUCCCAGCCUCCUCGCUGGCGCCGGCUGGGCAACAUUCCGAGGGGACAGUCCCCUCGGUAAUGGCGAAUGGGACCCA [A8U C58A]: 1.0

Reported self-cleavage reaches at least 0.4 for GGCCGGCAUGGUCCCAGCCUCCUCGCUGGCGCCGGGUGGGCAACAUUCCGAGGGGACCGUCCCCUCGGUAAUGGCGAAUCGGACCCA [C36G G80C] ? 0.0

Now try GGCCGGCAUGCUCCCAGCCUCCUCGCUGGCGCCGGCUGGGCAACAUUCCGAGGGGACCCUCCCCUCGGUAAUGGCGAAUGGGACCCA [G11C G59C] . 1.0

// next record GGCCGCCAUGGUCCCAGCCUCCUCGCUGGCGCCGGCUGGGCAACAUUCCGAGGGGACCGUCCCAUCGGUAAUGGCGAAUGGGACCCA [G6C C64A] 1.0

Now give it for GGCCGGCAUGGUCCCAGCCUGCUCGCUGGCGCCGGCUGGGCAACAUUCGGAGGGGACCGUCCCCUCGGUAAUGGCGAAUGGGACCCA [C21G C49G] too. 0.0

Now try GGCCGGCAUGGUCCCAGCCUCCUCGAUGGCGCCGGCUGGGCGACAUUCCGAGGGGACCGUCCCCUCGGUAAUGGCGAAUGGGACCCA [C26A A42G] . 1.0

Can you check GGCCGGCAUGGUCCCAGCCUUCUCGCUGGCGCCGGCUGGGCAACAUUCCGAGGGGACCGUCCCAUCGGUAAUGGCGAAUGGGACCCA [C21U C64A] next? 0.0

Again, but for GGCCGGCAUGGUCCCAGCCUCCUCGCUGGCGCCGGCUGGGCAACAUUCCGAGGGAACCGUCCCCUCGGUAAUGGCGAAUGGGACCCA [G55A] 1.0

And the next one, GGCCGGCAUGGUCCCAGCCUCCUCGCUGGCGCCGGCUGGGCAACAUUCCGAGGGGACCGUGCCCUGGGUAAUGGCGAAUGGGACCCA [C61G C66G] ? 1.0

Queued: GGCCGGCAUGGUCCCAGCAUCCUCGCUGGCGCCGGCUGGGCAACAUUCCGAGGGGACCGUCCGCUCGGUAAUGGCGAAUGGGACCCA [C19A C63G] 0.0

For GGCCGGCAUGGUCCCAGCCUCCUCGCUGGCGCCGGCUGGGCUACAUUCCGAGGGGACCGUCCCCUCGUUAAUGGCGAAUGGGACCCA [A42U G68U] then? 0.0

Next up: GGCCGGCAUGGUCCCAGCCUCCUCGCUGGCGCCGGCUGGGCAACAUUCCGACGGGACCGUCCCCUCGGUAAUGGCGAAUAGGACCCA [G52C G80A] 1.0

Check GGCCGGCAUGGUCCCAGCCUCCUCGCUGGCGCCGGCUGGGCAACAUACCGAGGGGACCGUCCCCUCGGUAAUGGCGAAUGGGACCCC [U47A A87C] too. 1.0

For GGCCGGCAUGGUCCCAGCCUCCUCGCUGGCGCCGGCUGGGCAACAUUCCGAGGGGACCGUCCCCUAGGUAAUGGCGAAUGGGACCUA [C66A C86U] then? 1.0

Then what about the variant GGCCGGCAUGGUCUCAGCCUCCUCGCUGGCGCCGGCUAGGCAACAUUCCGAGGGGACCGUCCCCUCGGUAAUGGCGAAUGGGACCCA [C14U G38A] ? 0.0

Same question for GGCCGGCAUGGUCCCAGCCUCCUAGCUGGCGCCGGCUGGGCAACAUUCCGAGGGGACAGUCCCCUCGGUAAUGGCGAAUGGGACCCA [C24A C58A] please. 1.0

Also GGCCGGCAUGGUCCCAGCCUCCUCGCUGGCGCCGGCUGGGCAACAUUCCGAGCGGACCUUCCCCUCGGUAAUGGCGAAUGGGACCCA [G53C G59U] ? 1.0

Then what about the variant GGCCGGCAUGGUCCGAGCCUCCUCGCUGGUGCCGGCUGGGCAACAUUCCGAGGGGACCGUCCCCUCGGUAAUGGCGAAUGGGACCCA [C15G C30U] ? 0.0
